# System: S. pyogenes A-9604
# PROCEDURE_TEXT: In vitro MIC, tube dilution
# Assay type: cell-based
# CONDITION_SET: Streptococcus pyogenes, A9604, tube dilution, Nutrient Broth, overnight incubation at 37° C.; additional data table
Measured MIC of individual entries
Kindly answer with a numeric value in ng/mL, unit omitted.

A selection of reference data follows.
- MOLECULE: "C[C@@H](O)[C@H]1C(=O)N2C(C(=O)[O-])=C(SCC[N+]3(C)CC[S+]([O-])CC3)C[C@H]12 (single isomer, unassigned) [Ex. 5 comp. B]"
  U: "ng/mL"
  MIC: 8
- MOLECULE: "C[C@@H](O)[C@H]1C(=O)N2C(C(=O)[O-])=C(SCC[N+]3(C)CCOCC3)C[C@H]12 [Example 3]"
  U: "ng/mL"
  MIC: 30
- MOLECULE: "C[C@@H](O)[C@H]1C(=O)N2C(C(=O)[O-])=C(SCC[N+]3(C)CCSCC3)C[C@H]12 [Example 2]"
  U: "ng/mL"
  MIC: 2

Data request, read-out MIC, for C[C@@H](O)[C@H]1C(=O)N2C(C(=O)O)=C(SCCN=CN)C[C@H]12 [N-Formimidoyl Thienamycin, N-formimidoyl thienamycin, reference compound] 2

Data request, read-out MIC, for C[C@@H](O)[C@H]1C(=O)N2C(C(=O)[O-])=C(SCC[N+]3(C)CCN(C)CC3)C[C@H]12 [Example 4] 4

* * *

# PROCEDURE_TEXT: Half-life in phosphate buffer solution
# Format: physicochemical
# CONDITION_SET: 0.1 m phosphate buffer, pH 7, 0.1 M pH 7 phosphate buffer, 37° C.; read-out: T1/2 (solution stability) (converted)
REPORTED_METRIC: half-life (h)
Kindly answer with a numeric value in h, unit omitted.

Data request, read-out half-life, for C[C@@H](O)[C@H]1C(=O)N2C(C(=O)[O-])=C(SCC[N+]3(C)CCSCC3)C[C@H]12 17.7

* * *

# Test system: S. aureus A-9606 (Pen-res.)
# PROCEDURE_TEXT: In vitro MIC, tube dilution
# Assay type: cell-based
# CONDITION_SET: Staphylococcus aureus, Nutrient Broth, overnight incubation at 37° C., additional data table, read-out: MIC S. aureus (Pen-res.) A-9606
Measured MIC of individual entries

A selection of reference data follows.
- COMPOUND: "C[C@@H](O)[C@H]1C(=O)N2C(C(=O)[O-])=C(SCC[N+]3(C)CCN(C)CC3)C[C@H]12"
  TARGET: "S. aureus A-9606 (Pen-res.)"
  REPORTED_METRIC: "MIC"
  RESULT: "0.06 µg/mL"
- COMPOUND: "C[C@@H](O)[C@H]1C(=O)N2C(C(=O)[O-])=C(SCC[N+]3(C)CCOCC3)C[C@H]12"
  TARGET: "S. aureus A-9606 (Pen-res.)"
  REPORTED_METRIC: "MIC"
  RESULT: "0.03 µg/mL"
- COMPOUND: "C[C@@H](O)[C@H]1C(=O)N2C(C(=O)O)=C(SCCN=CN)C[C@H]12 [N-Formimidoyl Thienamycin, N-formimidoyl thienamycin, reference compound]"
  TARGET: "S. aureus A-9606 (Pen-res.)"
  REPORTED_METRIC: "MIC"
  RESULT: "0.008 µg/mL"

Data request, read-out MIC, for C[C@@H](O)[C@H]1C(=O)N2C(C(=O)[O-])=C(SCC[N+]3(C)CC[S+]([O-])CC3)C[C@H]12 (single isomer, unassigned) 0.06 µg/mL

Data request, read-out MIC, for C[C@@H](O)[C@H]1C(=O)N2C(C(=O)[O-])=C(SCC[N+]3(C)CCSCC3)C[C@H]12 0.016 µg/mL
